test system: human neutrophils; test: cells; format: cell-based; settings: Neutrophil, fMLF/CB, mean ± SEM, n = 3, Table 4, read-out: fMLF/CB NE release (IC50)
Square brackets hold non-standard residues; d marks the D form. Peptide text beside a SMILES is read from it. * marks the point of attachment. Bz = O=C(c1ccccc1)*
Examples of compounds with documented pIC50 follow.
Please note pIC50 is a logarithmic value: minus log10 of concentration in mol/L. Answer with that number alone.

{"COMPOUND": "COC(=O)[C@@H](Cc1ccccc1)NC(=O)[C@H](Cc1c[nH]c2ccccc12)NC(=O)c1ccc(C)cc1 [Compound 6]", "pIC50": 5.61}

So what's the measured pIC50 for this one? COC(=O)[C@@H](Cc1ccccc1)NC(=O)[C@H](Cc1c[nH]c2ccccc12)NC(=O)c1ccccc1 [Compound 3] (Bz-Trp-[dF]-OMe)
6.22

These data points were gathered from patent US9593144B2.
